Where do these numbers come from? They come from patent US20240269276A1.

Target: T1, human PD-L1 protein with histidine tag (ACROBiosystems #PD-1-H5258) (human, UniProt Q9NZQ7 19-238)
T1 construct: Bought protein; also called His PD-L1; human PD-L1 proteins; not shown: histidine tag
T1 sequence (Q9NZQ7 19-238 limits assumed): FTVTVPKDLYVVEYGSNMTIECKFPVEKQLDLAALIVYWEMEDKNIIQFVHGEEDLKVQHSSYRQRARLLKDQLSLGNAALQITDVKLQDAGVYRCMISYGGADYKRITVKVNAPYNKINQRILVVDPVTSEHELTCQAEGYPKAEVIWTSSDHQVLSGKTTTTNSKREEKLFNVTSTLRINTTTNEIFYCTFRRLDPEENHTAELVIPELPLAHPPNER
Test: BLI (Octet Red96e); His-tagged human PD-L1 captured on HIS1K sensor, antibody at 60 nM; 1:1 fit
Decision: kon beneath 200000 M⁻¹ s⁻¹ gives met; kon meeting or exceeding 200000 M⁻¹ s⁻¹ gives not met.

PR005872 (antibody, human IgG1, V domains shown, The HC entry is used) VH: QVQLVESGGGVVQPGMSLRLSCAASGFTFSSYGMYWVRQAPGKGQEWVASIRYTGTEKHYADSVKGRFTISRDNSKNTLYLEMNSLRVEDTAVYYCAKNRAIFGVIPDDSDIRGQGTMVTVSS : not met

Now for a further binder.
Q: Identify whether the binder PR005867 (antibody, human IgG1, V domains shown, The HC entry is used) VH: QVQLVESGGGVVQPGMSLRLSCAASGFTFSSYGMYWVRQAPGKGQEWVAIIWYDGTKKHYADSVKGRFTISRDNSKNTLYLEMNSLRVEDTAVYYCAKNRAIFGVIPDDSDIRGQGTMVTVSS records kon below 200000 M⁻¹ s⁻¹.
Ans: not met
